Experiment: ATG_PBREM_CIS: Attagene CIS-FACTORIAL HepG2 Assay for human Phenobarbital-responsive Enhancer Module (PBREM) (AID 2282955)
Details: HepG2 PBREM cis-reporter, Attagene multiplexed transcription; actives raise or lower the signal
Calls of active or inactive are those of the source. The calls were made as follows: active = hit-call score of the fitted dose curve at least 0.9, where 1 is the maximum; inactive = score below 0.9.
Outcome field: choose from active, inactive

Sample answers from the record:
>  <molecule>
O=C(OCCCCCCOC(=O)c1ccccc1)c1ccccc1

>  <discreteLabel>
inactive

$$$$
>  <molecule>
CC[C@@H]1C[C@H](N(Cc2cc(C(F)(F)F)cc(C(F)(F)F)c2)C(C)=O)c2cc(C(F)(F)F)ccc2N1C(=O)OC(C)C

>  <discreteLabel>
active

$$$$

Data request: Dear colleague, could you share the recorded outcome for CCCCCCCCOC(=O)c1cc(O)c(O)c(O)c1 when you have a moment?
Data returned: inactive
